Sourced from the DeepSol protein solubility set

- test: soluble on expression in E. coli; label from the status in PepcDB or PDB records
recorded.endpoint: soluble on expression in E. coli

ordered.residues	measured.result
MEAEELTVGRVHHGHNIRRFRIEKNMNQEVLSQLVHLSQSAVSKYEQMRVIDDEMLHRFSRALGVPFEYLKSLEEDAQTVVFENNTVNNNDQASANIGGYVEENNRVNNYNPIEKITELYERLLKEKDEKYAALERRLQNIEQSLQK	not soluble
MGSDKIHHHHHHMAQVDLLNVKGEKVGTLEISDFVFNIDPNYDVMWRYVDMQLSNRRAGTASTKTRGEVSGGGRKPWPQKHTGRARHGSIRSPIWRHGGVVHGPKPRDWSKKLNKKMKKLALRSALSVKYRENKLLVLDDLKLERPKTKSLKEILQNLQLSDKKTLIVLPWKEEGYMNVKLSGRNLPDVKVIIADNPNNSKNGEKAVRIDGLNVFDMLKYDYLVLTRDMVSKIEEVLGNEAGKALTA	not soluble
MGSDKIHHHHHHMTGDATPPVGLRFAQDKTHEVFMKRYRHTQILALLETRSAIRATEAAEMLGVSVGTIRRDMAELEAGGYLNRTHGGAFAAIEGEAGFMRRTCWNRDKKRVIGQAAAAHISSGSVVFIDGGTTPEAMLPFLVEKTSLTVVTCGLNIALQLLRWPYISTILLGGEVHAESRTVTGTLPVTQLDSFGMRFDMAVIATAGISAEHGATNRMLERLALKQLVLRNSASSILVGDSSKVNCAFLGRVAPLSAFSLCIMDDDLTDEQKAKLSEAGRFEFVPLEGSRRR	not soluble

----------
- test: soluble on expression in E. coli; label from the status in PepcDB or PDB records
recorded.endpoint: soluble on expression in E. coli

ordered.residues	measured.result
MGSDKIHHHHHHMDFAAIDKQISALEACIDSTVEVTPGEQLSVGVDLGTAYIVVVVLNAAGSPVACAMEFAQVIKDGLVVDYVGATRIVRRLVQQLEERLGRQLTHAAIAVPPGTGHKDSNTHRHVVEGAGLEVTAILDEPTAANAVLGVQNGVIVDIGGGTTGLSVIEDGKVTYVADEPTGGTHVSLVLAGSYRISFTEAEELKKDQDRQREILPVVRPVIQKMASIVNRHIEGRDISAIYLVGGTCCLKDFETVFEKETGRPVYKPANPFLVTPLGIALNCNA	not soluble
MGSDKIHHHHHHMDTDLLKTFLEVSRTRHFGKAAENLYLTRSAVSFRVKQLESILGVALFERQRNNIQPTPAGERMLGHAEAVLTAWERAKQDVSLSQLQSTQLAIGAGPNIWDAYLQGYLQGLHVGLPGVALRTEVLPANAMTRQLMDRTLDIAISFDPPKLDQFELVQLGQINLLLVSSLKGQTGTAVLPGQYVKVDWGTAFNIVHAQEYASLPVPTLHTSSARIALDFILNNGGCAFLPEHLVQHALHSGELHHVSGASAISRNVYVAYWAENDRLAQIKQAIDFLRDDGSVFAHATI	not soluble
MGSDKIHHHHHHMQRHLVDEFWCINVDSTAWSKVLHRGTRREFKKGEQIVSAGELVTQLRYLESGSVCMKRTTLDGNEKILMHIERSSLFCEVPFFTGDEIHSSFNCHRDAVVYCFSKEVVDDILEMYPCIAKDIIRTLSMKVSVLSNQIASLGLDTLEQRIAKFILLRYNLMNLADADLMTLGTLRMKDVASILGVHRATLYRALKTMEKMRLIKLLNENRLQVLNIEALAALANH	not soluble

----------
- test: soluble on expression in E. coli; label from the status in PepcDB or PDB records

ordered.residues	soluble on expression in E. coli
EHLRLDNDQREKYIQEARNMGSTIRQPKLSNLSPSVIAQTNWKFVEGLLKECRNKTKRMLVEKMGREAVELGHGEVNITGVEENTLIASLCDLLERIWSHGLQVKQGKSALWSHLLHYQENRQRKLTSGSLSTSGILLDSERRKSDASAVMSPLRISLIQDMRHIQNIGEIKTDVGKARAWVRLSMEKKLLSRHLKQLLSDHELTKKLYKRYAFLRCDDEKEQFLYHLLSFNAVDYFCFTNVFTTILIPYHILIVPSKKLGGSMFTANPWICISGELGETQILQIPRNVLEMTFECQNLGKLTTVQIGHDNSGLYAKWLVECVMVRNEVTGHTYKFPCGRWLGKGMDDGSLERVLVGELLTSLPEVDERPCRTPPLQQSPSVIR	soluble
GMEKLNFGIPEWAFEFHGHKCPYMPMGYRAGSYALKIAGLEKEKDHRTYLLSEMSPEDMNGCFNDGAQAATGCTYGKGLFSLLGYGKLALILYRPGRKAIRVHVRNSFMDELSTRASDFFRYRKQGYEPSEIPAGAIDPVLEWISSLEDEEIFEYREIDGFTFEPVKKNGAKVRCDVCGEYTYEADAKLLNGKPVCKPDYYGKK	soluble
GHMENKVINFKKIIDSRGSLVAIEENKNIPFSIKRVYYIFDTKGEEPRGFHANKKLEQVLVCLNGSCRVILDDGNIIQEITLDSPAVGLYVGPAVWHEMHDFSSDCVMMVLASDYYDETDYIRQYDNFKKYIAKINLEKEG	soluble

----------
- test: soluble on expression in E. coli; label from the status in PepcDB or PDB records
recorded.endpoint: soluble on expression in E. coli

ordered.residues	recorded.endpoint	measured.result
MIKLVAFDLDGTIGNTLPMCIQAFKKATQPYIGHELSDEEMVHTFGLNEEGMIGCVVDEPYRQQALNDFYVIYKELHQEMCPTPFEGIRELIALLKQKGIIVALITGKGINSCDITLKQFNMKDSFAKVITGNAERNIKSEALKELLHDYHLAANEIVYVGDALSDITECRKANVMCLSAAWSIPQNEVTALENSNPKNVFYSISSLFKYL	soluble on expression in E. coli	not soluble
MNASSAPQQQQQQQQPQQGQAPQQQQQGPPQHQYQQQRPFHGRVQNHMRGSGPFGNSNGYGRYTAPRGDQQHHDSTPLSSTNLYIRGLMPNTNDDLLREMCSKYGNIASTKAIMDKATNNCKGYGFVDFESPQAAAAAVDGLNTEGVQAQMAKLQQQEQDPTNLYIANLPLDFTEQMLETELNKFGMVISTRILRTPDNQSRGVGFARMDSKEKCEVIISALNGGRFDTMSKEGPALLIKQADTGRKSKHSMNNPEMLQRMQYPQVYQSYYGYHPAAVYQQHYDVNSLASQMGGMHVGGGNPQANGGGDMYGAHMYGQNAGGQGGQGVGQGGQGGNQQFYNPNNGRNKKYFQPMNPQ	soluble on expression in E. coli	not soluble

----------
- test: soluble on expression in E. coli; label from the status in PepcDB or PDB records

ordered.residues	soluble on expression in E. coli
MKGFYHHPSRTISLRNNLSERQLRSTLAHELGHAMRGDVPTSGVFAEHIERRADEFAARLLISPIEYRLAESLHDGHIGAIAYELGVTVRLVEVWRDMHDRITA	not soluble
MKRRCVFMRLSLLDYVPLFEGRTPNDALKHSIKLAQHAEKLGYLRYWVAEHHQVYSVVSSAPEIIMMSILEHTQHIRVGSGGVMLPHYSPYKVAEQFKIMEARHPQRIDMAIGRSPSFKNVNAALNENKNEKLPFNTQITDLLKYFNNDTTQDHRFKSLLATPMVTSFPQLYILGMSNRSAKLAAQRGLPFVIARMGQSETDLHEAISTYRKYFKAYHGEINNAKPYVILATFVVTASNLSRVKQLLHTLQLWLMRINYLNQPKSYPSIETAQNKHYSQRELEKLEKMKSKIIYGMPNDVAEQLTLLHQQFKVDEIIILPHVFGEDARMELIELIANELIPSCSRDEF	not soluble
MQEYTNHSDTTFALRNISFRVPGRTLLHPLSLTFPAGKVTGLIGHNGSGKSTLLKMLGRHQPPSEGEILLDAQPLESWSSKAFARKVAYLPQQLPPAEGMTVRELVAIGRYPWHGALGRFGAADREKVEEAISLVGLKPLAHRLVDSLSGGERQRAWIAMLVAQDSRCLLLDEPTSALDIAHQVDVLALVHRLSQERGLTVIAVLHDINMAARYCDYLVALRSGEMIAQGTPAEIMRGETLEMIYGIPMGILPHPAGAAPVSFVY	not soluble

----------
- test: soluble on expression in E. coli; label from the status in PepcDB or PDB records
recorded.endpoint: soluble on expression in E. coli

ordered.residues	recorded.endpoint	measured.result
MRVVIQRVKGAILSVRKENIGENEKELEIISEIKNGLICFLGIHKNDTWEDALYIIRKCLNLRLWNNDNKTWDKNVKDLNYELLIVSQFTLFGNTKKGNKPDFHLAKEPNEALIFYNKIIDEFKKQYNDDKIKIGKFGNYMNIDVTNDGPVTIYIDTHDINLNK	soluble on expression in E. coli	soluble
MTELERHLLNALEQLQQDYMQRLNEWESAFVELQKMFSLTQRDNAMLNEQVMQLSQQVQHLSERTERLSQLYSENRRLEHHHHHH	soluble on expression in E. coli	not soluble
MHFKTKLKNRRSEVNTCLCIGLDPDEDDIKNFMKNEEQNGYKNIKNNMNSNNNGIENIIKIGKEILLTDGENIQNLSEEDKFFYFFNHFCFYIINNTKEYALVYKMNFAFYIPYGSVGINALKNVFDYLNSMNIPTMLDMKINDIGNTVKNYRKFIFEYLKSDSCTINVYMGTNMLKDICFDYEKNKYYSAYVLIKTTNKDSFIFQNELSINDKQAYIVMADETQKMATELKIEQNNEFIGFVVGSNAFEEMKIIRNKFPDSYILSPGIGAQNGDLYKTLKNGYNKDYEKLLINVGRAITKSPDPKKSSESYYNQIIQIFKDIENGDNIEQV	soluble on expression in E. coli	soluble
MVDLNKYKRFVETHGMKIPVLSLEYEYQAYLKLGRVEKAETLRKWLNERKG	soluble on expression in E. coli	not soluble
